Parameter Measured: melting point

Observe how each entry below is paired with its result.
Cn1ncc(C(=O)N2CC3(COC3)C2)c1C(=O)Nc1ccn2nc(N3CCOCC3)nc2c1; > 300 °C
CSc1cnc2cc(Cl)sc2c1O; 235 to 237 °C
O=C(O)[C@@H]1CCCN1C(=O)c1ccccc1; 152 to 154 °C
C=C(C(=O)c1ccc(C(=O)O)cc1)c1cc(-c2cccs2)ccc1OC; > 250 °C
COc1cc2ncc3c(N)nc(C)cc3c2cc1OC; 244 to 248 °C
O=C(O)CCCCc1cc(O)c(O)cc1[N+](=O)[O-]; 111 to 114 °C

// Input: Cc1cc(C#N)ccc1N1CCN(C(=O)OC(C)(C)C)CC1 . Output its melting point only. 127 to 131 °C

Assign melting point to the following record: CCCCCCCCc1cccc(N2CC(=O)NC(=O)N2)c1 169 to 171 °C

// fetch melting point given entry N=c1n[n+]([O-])c2ccccc2n1OC(=O)c1ccccc1 177 to 179 °C
